Reference source for all entries: the MegaScale stability set (Tsuboyama et al. 2023)

B1: EHEE_rd3_0053 (parent)
chain: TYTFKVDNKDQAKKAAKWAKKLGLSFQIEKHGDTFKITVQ

- Variants of: B1
- test: folding stability dG (cDNA display proteolysis); higher = more stable
- measurement-context: PBS, room temperature
Recorded measurements of folding stability dG, one per entry
Kindly answer with a numeric value in kcal/mol, unit omitted.

Answered cases to consult:
[
  {
    "primary-sequence": "TYTFKVDNKDQAWKAAKWAKKLGLSFQIEKHGDTFKITVQ",
    "folding stability dG [kcal/mol]": 2.35
  },
  {
    "primary-sequence": "TYTFKVDNKDQAKKAAKWAKKLGLSIQIEKHGDTFKITVQ",
    "folding stability dG [kcal/mol]": 2.64
  },
  {
    "primary-sequence": "TYTFKVDNKDQAKKAAPWAKKLGLSFQIEKHGDTFKITVQ",
    "folding stability dG [kcal/mol]": -0.379
  },
  {
    "primary-sequence": "TYTFKVDNKDQAKKAAKWAKKLGLSFQIEKVGDTFKITVQ",
    "folding stability dG [kcal/mol]": 2.87
  },
  {
    "primary-sequence": "TYTFKVDNKDQAKKAAKWAKKLGLSGQIEKHGDTFKITVQ",
    "folding stability dG [kcal/mol]": -0.311
  }
]

Next variant, please.
Ask: Let me know recorded folding stability dG for TYTFKVDNKDQGKKAAKWAKKLGLSFQIEKHGDTFKITVQ , thanks.
Result: 1.05
